- TARGET: Tumour suppressor p53/oncoprotein Mdm2 (Homo sapiens, UniProt Q00987)
- Sequence (P04637 whole entry): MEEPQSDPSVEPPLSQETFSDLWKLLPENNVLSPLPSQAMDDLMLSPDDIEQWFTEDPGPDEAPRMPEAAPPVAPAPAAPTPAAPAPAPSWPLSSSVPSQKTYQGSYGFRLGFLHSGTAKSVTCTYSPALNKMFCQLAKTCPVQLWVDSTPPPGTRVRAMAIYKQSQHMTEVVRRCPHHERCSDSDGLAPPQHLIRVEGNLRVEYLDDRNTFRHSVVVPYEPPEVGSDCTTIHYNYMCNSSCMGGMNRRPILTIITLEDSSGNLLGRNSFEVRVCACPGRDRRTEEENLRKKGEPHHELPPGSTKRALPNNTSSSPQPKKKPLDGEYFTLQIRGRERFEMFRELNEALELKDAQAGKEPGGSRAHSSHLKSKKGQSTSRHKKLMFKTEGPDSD
- Sequence (Q00987 whole entry): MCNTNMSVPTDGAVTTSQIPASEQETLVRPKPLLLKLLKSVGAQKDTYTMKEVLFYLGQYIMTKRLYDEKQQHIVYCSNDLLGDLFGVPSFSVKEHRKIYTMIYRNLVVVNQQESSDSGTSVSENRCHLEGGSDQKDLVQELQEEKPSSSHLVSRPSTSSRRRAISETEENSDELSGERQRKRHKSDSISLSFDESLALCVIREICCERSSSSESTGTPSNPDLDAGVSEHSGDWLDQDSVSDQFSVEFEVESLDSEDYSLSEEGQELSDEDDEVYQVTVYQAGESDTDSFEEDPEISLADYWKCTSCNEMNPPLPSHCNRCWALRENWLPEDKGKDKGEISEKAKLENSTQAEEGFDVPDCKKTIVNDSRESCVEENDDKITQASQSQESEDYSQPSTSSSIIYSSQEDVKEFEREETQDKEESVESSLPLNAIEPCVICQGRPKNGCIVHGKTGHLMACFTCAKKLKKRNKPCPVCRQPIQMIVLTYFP
- RUN_DESCRIPTION: Inhibition of human His-tagged p53/GST-tagged MDM2 interaction after 60 mins by chemiluminescence assay
PROPERTY_LABEL: IC50

> print(dat)
                                   compound                                    target  meas.value
1  CC(C)C1=C(C(=O)N2CCC[C@H]2C(=O)N2C[C@@H](C)N[C@@H](C)C2)SC2=N[C@@](C)(c3ccc(Cl)cc3)[C@@H](c3ccc(Cl)cc3)N21  Tumour suppressor p53/oncoprotein Mdm2 (Homo sapiens, UniProt Q00987)       37 nM
2  CC(C)C1=C(C(=O)N2CCC[C@H]2C(=O)N2CCOCC2)SC2=N[C@@](C)(c3ccc(Cl)cc3)[C@@H](c3ccc(Cl)cc3)N21  Tumour suppressor p53/oncoprotein Mdm2 (Homo sapiens, UniProt Q00987)       26 nM
3  CC(C)C1=C(C(=O)N2CCCC[C@H]2C(=O)N(C)C)SC2=NC(C)(c3ccc(Cl)cc3)C(c3ccc(Cl)cc3)N21 (mixture of isomers)  Tumour suppressor p53/oncoprotein Mdm2 (Homo sapiens, UniProt Q00987)      170 nM
4  CC(C)C1=C(C(=O)N2CCC[C@H]2C(=O)N2CCNC(=O)C2)SC2=N[C@@](C)(c3ccc(Cl)cc3)[C@@H](c3ccc(Cl)cc3)N21  Tumour suppressor p53/oncoprotein Mdm2 (Homo sapiens, UniProt Q00987)       79 nM
5  CC(C)C1=C(C(=O)N2CCNC(=O)C2)SC2=N[C@](C)(c3ccc(Cl)cc3)[C@H](c3ccc(Cl)cc3)N21  Tumour suppressor p53/oncoprotein Mdm2 (Homo sapiens, UniProt Q00987)     1500 nM
6  CC(C)C1=C(C(=O)N2CCNC(=O)C2)SC2=NC(C)(c3ccc(Cl)cc3)C(c3ccc(Cl)cc3)N21 (racemic)  Tumour suppressor p53/oncoprotein Mdm2 (Homo sapiens, UniProt Q00987)      410 nM
7  CC(=O)N1CCN(C(=O)[C@@H]2CCCN2C(=O)C2=C(C(C)C)N3C(=N[C@@](C)(c4ccc(Cl)cc4)[C@H]3c3ccc(Cl)cc3)S2)CC1  Tumour suppressor p53/oncoprotein Mdm2 (Homo sapiens, UniProt Q00987)       66 nM

====

Some molecules, each annotated with its measured log10 IC50.
- TARGET: Tumour suppressor p53/oncoprotein Mdm2 (Homo sapiens)
- RUN_DESCRIPTION: Inhibition of human His-tagged p53/GST-tagged MDM2 interaction after 60 mins by chemiluminescence assay
PROPERTY_LABEL: log10 IC50 (log10 of the value in nM)

> print(dat)
                                   molecule  meas.value
1  CC(C)C1=C(C(=O)N(C)C)SC2=N[C@@](C)(c3ccc(Cl)cc3)[C@@H](c3ccc(Cl)cc3)N21        1.41
2  CNC(=O)C1=C(C(C)C)N2C(=NC(C)(c3ccc(Cl)cc3)C2c2ccc(Cl)cc2)S1 (racemic)        3.04
3  CC(C)C1=C(C(N)=O)SC2=NC(C)(c3ccc(Cl)cc3)C(c3ccc(Cl)cc3)N21 (racemic)        2.89
4  CC(C)C1=C(C(=O)N(C)C)SC2=NC(C)(c3ccc(Cl)cc3)C(c3ccc(Cl)cc3)N21 (racemic)        1.62
5  CC(C)C1=C(C(=O)N2CCCC2)SC2=NC(C)(c3ccc(Cl)cc3)C(c3ccc(Cl)cc3)N21 (racemic)        2.30
